Where these numbers come from: ChEMBL document CHEMBL3259592

# measuredOn: Glucose-dependent insulinotropic receptor (Homo sapiens)
# Sequence (Q8TDV5 whole entry): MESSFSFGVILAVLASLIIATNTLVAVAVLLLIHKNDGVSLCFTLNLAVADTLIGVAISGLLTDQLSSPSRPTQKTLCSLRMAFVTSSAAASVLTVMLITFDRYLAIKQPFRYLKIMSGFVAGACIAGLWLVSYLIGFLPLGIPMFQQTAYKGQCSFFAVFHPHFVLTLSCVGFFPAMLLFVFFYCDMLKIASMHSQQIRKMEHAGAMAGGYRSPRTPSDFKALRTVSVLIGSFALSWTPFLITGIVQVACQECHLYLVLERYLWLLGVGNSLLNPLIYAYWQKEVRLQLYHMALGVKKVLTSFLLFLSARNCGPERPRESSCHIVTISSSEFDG
# assayOverview: Agonist activity at human GPR119 expressed in HEK293 cells co-expressing Flp-In-T-Rex assessed as cAMP accumulation after 60 mins
pEC50: −log10 of the molar value.
readout: pEC50

> print(dat)
                                   compound  readout  result
1  CCCc1cnc(N2CCC(C3Cc4cc(-c5ccc(S(C)(=O)=O)cc5F)ccc4O3)CC2)nc1 (racemic)    pEC50    6.27
2  CCCc1cnc(N2CCC(C3Cc4cc(C5=CCN(S(=O)(=O)CCC)CC5)ccc4O3)CC2)nc1 (racemic)    pEC50    7.09
3  CCCS(=O)(=O)N1CC=C(c2ccc3c(c2)CC(C2CCN(S(=O)(=O)CCC)CC2)O3)CC1 (racemic)    pEC50    6.00
4  CCCc1cnc(N2CCC(C3Cc4cc(N5CCN(S(=O)(=O)CCC)CC5)ccc4O3)CC2)nc1 (racemic)    pEC50    6.26

---

# assayOverview: Aqueous solubility of the compound at pH 6.5
# Type: physicochemical
# statedConditions: aqueous, read-out: solubility
Recorded solubility for the following compounds
readout: solubility

> print(dat)
                                   compound     result
1  CCCc1cnc(N2CCC(C3Cc4c(F)c(C5=CCN(S(=O)(=O)CCC)CC5)cc(F)c4O3)CC2)nc1 (racemic)  < 1 µg/mL
2  CCCc1cnc(N2CCC(C3Cc4c(ccc(C5=CCN(S(=O)(=O)CCC)CC5)c4F)O3)CC2)nc1 (racemic)  < 1 µg/mL

---

# assayOverview: Metabolic stability in human liver microsomes assessed as compound remaining after 10 mins
# Format: ADME
# statedConditions: read-out: Stability
Recorded remaining at 10 min for the following compounds
readout: remaining at 10 min (%)

> print(dat)
                                    compound  measureunit  result
 1  CCCc1cnc(N2CCC(C3Cc4cc(C5=CCN(S(=O)(=O)CCCCO)CC5)cc(F)c4O3)CC2)nc1 (racemic)            %      73
 2  CCCc1cnc(N2CCC(C3Cc4cc(C5=CCN(S(=O)(=O)CCC)CC5)ccc4O3)CC2)nc1 (racemic)            %      71
 3  CCCc1cnc(N2CCC(C3Cc4c(ccc(C5=CCN(S(=O)(=O)CCC)CC5)c4F)O3)CC2)nc1 (racemic)            %      87
 4  CCCc1cnc(N2CCC(C3(C)Cc4cc(C5=CCN(S(=O)(=O)CCCCO)CC5)ccc4O3)CC2)nc1 (racemic)            %      67
 5  CCCc1cnc(N2CCC(C3Cc4c(F)c(C5=CCN(S(=O)(=O)CCC)CC5)cc(F)c4O3)CC2)nc1 (racemic)            %      78
 6  CCCS(=O)(=O)N1CC=C(c2ccc3c(c2)CC(C2CCN(c4ncc(C5CC5)cn4)CC2)O3)CC1 (racemic)            %      58
 7  CCCc1cnc(N2CCC(C3Cc4cc(C5=CCN(S(=O)(=O)CCCO)CC5)cc(F)c4O3)CC2)nc1 (racemic)            %     100
 8  CCCS(=O)(=O)N1CC=C(c2ccc3c(c2)CC(C2CCN(c4ncc(C(F)(F)F)cn4)CC2)O3)CC1 (racemic)            %      58
 9  CCCc1cnc(N2CCC(C3(C)Cc4cc(C5=CCN(S(=O)(=O)CCC)CC5)ccc4O3)CC2)nc1 (racemic)            %      68
10  CCCS(=O)(=O)N1CC=C(c2ccc3c(c2)CC(C2CCN(c4ncc(Cl)cn4)CC2)O3)CC1 (racemic)            %      48
11  CCCc1cnc(N2CCC(C3Cc4cc(C5=CCN(S(=O)(=O)CCC)CC5)cc(F)c4O3)CC2)nc1 (racemic)            %      97

---

Recorded Emax for the following compounds
# measuredOn: Glucose-dependent insulinotropic receptor (Homo sapiens)
# assayOverview: Intrinsic activity at human GPR119 expressed in HEK293 cells co-expressing Flp-In-T-Rex assessed as cAMP accumulation after 60 mins relative to propan-2-yl 4-({6-[(2-fluoro-4-methanesulfonylphenyl)amino]pyrimidin-4-yl}oxy)piperidine-1-carboxylate
# Type: functional, cell-based
readout: Emax (%)

> print(dat)
                                   compound  result
1  CCCc1cnc(N2CCC(C3Cc4cc(N5CCN(S(=O)(=O)CCC)CC5)ccc4O3)CC2)nc1 (racemic)      74
2  CCCc1cnc(N2CCC(C3Cc4c(F)c(C5=CCN(S(=O)(=O)CCC(C)(C)O)CC5)cc(F)c4O3)CC2)nc1 (racemic)      82
3  CCCc1cnc(N2CCC(C3Cc4cc(C5=CCN(S(=O)(=O)CCCCO)CC5)cc(F)c4O3)CC2)nc1 (racemic)      98
4  CCCc1cnc(N2CCC(C3Cc4c(F)c(C5=CCN(S(=O)(=O)CCCO)CC5)cc(F)c4O3)CC2)nc1 (racemic)      86
5  CCCc1cnc(N2CCC(C3(C)Cc4cc(C5=CCN(S(=O)(=O)CCC)CC5)ccc4O3)CC2)nc1 (racemic)      48
6  CCCc1cnc(N2CCC(C3Cc4cc(C5=CCN(S(=O)(=O)CCCO)CC5)cc(F)c4O3)CC2)nc1 (racemic)      92
7  CCCc1cnc(N2CCC(C3Cc4cc(C5=CCN(S(=O)(=O)CCC)CC5)ccc4O3)CC2)nc1 (racemic)     107
8  CCCS(=O)(=O)N1CC=C(c2ccc3c(c2)CC(C2CCN(c4ncc(Cl)cn4)CC2)O3)CC1 (racemic)      88

---

# assayOverview: Metabolic stability in mouse liver microsomes assessed as compound remaining after 10 mins
# Assay type: ADME
# statedConditions: read-out: Stability
One threshold, 60%, splits the recorded remaining at 10 min values: lower ones are 1 (yes), equal or higher ones are 0 (no).

> print(dat)
                                   compound  qualitativelabel
1  CCCS(=O)(=O)N1CC=C(c2ccc3c(c2)CC(C2CCN(c4ccc(C(F)(F)F)cn4)CC2)O3)CC1 (racemic)           1 (yes)
2  CCCc1cnc(N2CCC(C3Cc4cc(C5CCN(S(=O)(=O)CCC)CC5)ccc4O3)CC2)nc1 (racemic)           1 (yes)
3  CCCS(=O)(=O)N1CC=C(c2ccc3c(c2)CC(C2CCN(C(=O)OC(C)C)CC2)O3)CC1 (racemic)           1 (yes)
4  CCCc1cnc(N2CCC(C3Cc4cc(C5=CCN(S(=O)(=O)CCC)CC5)cc(F)c4O3)CC2)nc1 (racemic)            0 (no)
5  CCCc1cnc(N2CCC(C3Cc4cc(N5CCN(S(=O)(=O)CCC)CC5)ccc4O3)CC2)nc1 (racemic)           1 (yes)
6  CCCc1cnc(N2CCC(C3(C)Cc4cc(C5=CCN(S(=O)(=O)CCCO)CC5)ccc4O3)CC2)nc1 (racemic)           1 (yes)
7  CCCc1cnc(N2CCC(C3Cc4c(ccc(C5=CCN(S(=O)(=O)CCC)CC5)c4F)O3)CC2)nc1 (racemic)            0 (no)
8  CCCS(=O)(=O)N1CC=C(c2ccc3c(c2)CC(C2CCN(c4ncc(Cl)cn4)CC2)O3)CC1 (racemic)           1 (yes)

---

# assayOverview: Metabolic stability in mouse liver microsomes assessed as compound remaining after 10 mins
# Type: ADME
# statedConditions: read-out: Stability
readout: remaining at 10 min (%)

> print(dat)
                                   compound  result
1  CCCc1cnc(N2CCC(C3Cc4c(F)c(C5=CCN(S(=O)(=O)CCC(C)(C)O)CC5)cc(F)c4O3)CC2)nc1 (racemic)      61
2  CCCc1cnc(N2CCC(C3Cc4cc(C5=CCN(S(=O)(=O)CCCCO)CC5)cc(F)c4O3)CC2)nc1 (racemic)      59
3  CCCc1cnc(N2CCC(C3Cc4cc(C5=CCN(S(=O)(=O)CCCO)CC5)cc(F)c4O3)CC2)nc1 (racemic)      60
